Assay: protein stability index of a GFP-peptide fusion (yeast GPS) (PSI 1-4); higher = more stable; sorted into four equal gates, so the index is relative within each strain
Conditions: san1∆
Parameter: protein stability index

Need protein stability index, item WKPNPSYDVENVNSRNQ [SRB5]
3

// returns reported protein stability index for input KQIDIPNFNVEIMQQKF [ECM29]
3.03

Continuing:
Look up protein stability index: AHKLKKSLDSIPMSKTI [FAS2]
3.01

====

# Lookup of reported protein stability index keyed by entry
Experiment: protein stability index of a GFP-peptide fusion (yeast GPS) (PSI 1-4); higher = more stable; sorted into four equal gates, so the index is relative within each strain
Details: san1∆

Look up protein stability index for this sequence: GDKDTRADIVRNIILEA [ISW2]
2.09

Continuing:
// returns reported protein stability index for input QPKPLFSFGKSDAAKEP [YOR098C/NUP1]
2.44

Data request, read-out protein stability index, for HMSTYLKIYKVGDIVDI [RPL21B]
1.95

====

Assay: protein stability index of a GFP-peptide fusion (yeast GPS) (PSI 1-4); higher = more stable; sorted into four equal gates, so the index is relative within each strain
Conditions: doa10∆
Measured protein stability index of individual entries

Solved entries (count: 2):
Any idea what protein stability index was measured for AVGNLGNAVTVTEDGTV [RPL22A] ?
1.46

Dear colleague, I am looking for the recorded protein stability index of the following sequence: MVHLYSIVEECDARFDE [RPC17]
3.04

---
Field request: protein stability index | item: YKAISAQADKQDISSST [FAS2]
2.91

Quick check: protein stability index of IFTEKIYKSIFNVVDVG [YJL039C/NUP192] ?
1.99

// protein stability index lookup, key: FLLLAVNKYGLRADKLY [ISW2]
3.05

Data request, read-out protein stability index, for DPLNSNIFSEAVKNKYN [PRP28]
1.81

Reported protein stability index, sequence KQLNSLRRSGQIANDPS [SMD1] : ____
2.56

Would you mind telling me what protein stability index value was observed for ITLIDSASLHLNYGVYL [RET1] ?
2.4

Need protein stability index, item MNIKPVQKQTRAGQRTR [RPS2]
2.67

// lookup protein stability index for VLITDHIEKLENEFVVL [CDC53]
3.05

May I ask what protein stability index has been recorded for ATPFRQWFEAHYGQTLG [RPS8A] ?
2.44

# lookup: protein stability index of DSETSDPNEVEIKKLLA [DIS3]
2.9

Fill in: protein stability index of LIIDGQIIFGVVEKKTV [RPO21] is ___
1.37

I am curious: what protein stability index value has been reported for MHRKSLRRASATVPSAP [YAR002W/NUP60] ?
2.64

Return reported protein stability index; argument: MPLKILLATKQHDSSAN [CSN12]
2.48

Fill in: protein stability index of VYSVDPLEKITDAYLDQ [PRP8] is ___
3.33

Name the recorded protein stability index for DDKVSVVEKEKIESLAG [UBP6] .
3.31

====

Test: protein stability index of a GFP-peptide fusion (yeast GPS) (PSI 1-4); higher = more stable; sorted into four equal gates, so the index is relative within each strain
Conditions: ubr1∆
Parameter: protein stability index
Please state the value as a number alone, without comment.

Given the sequence AKKLIQSLPPTLKVNRL [RPL38] , what is its reported protein stability index?
2.27

Others:
Please give the measured protein stability index for this sequence: TDRESYPRLQDPSRELN [YCS4]
3.09

Item KVDWAREHFEKTVAVDS [RPL3] has what recorded protein stability index?
1.9

Item GLAVGLALINYGRQELA [RPN2] has what recorded protein stability index?
1.09

Can you share its protein stability index? I mean this sequence: VMKDIYKVENVTLYWNN [ESC2]
1.73

// query protein stability index value for entry SVPIWVDTSTELESMLE [RRP6]
2.96

# lookup: protein stability index of LHCCIQLLMGDIPELSF [RPN3]
1.71

Can you look up the measured protein stability index of EYAALASLADVMSIESL [FAS1] for me?
3.07

Item under review: YERRFGPYFVGPVVAGI [PUP3] . Reported protein stability index?
3.11

====

Experiment: protein stability index of a GFP-peptide fusion (yeast GPS) (PSI 1-4); higher = more stable; sorted into four equal gates, so the index is relative within each strain
Conditions: san1∆
Parameter: protein stability index

Item GLIPYPHHNQSPRNTYQ [RET1] has what recorded protein stability index?
2.83

Give the measured protein stability index of YELEFDTPTSGKHNLTI [BRR2] .
3.18

Bench note: what protein stability index did AENQTGESTVESEKLVT [RPC82] show?
3.15

Need protein stability index of TYNEDIPVEILVRRLSD [PRE9] , thanks.
3.14

# lookup: protein stability index of GIRWELISRLCPNSTGA [RPT1]
2.12

More entries:
Which protein stability index value is on record for IINSTALMKEKDIRSTL [RPC82] ?
2.97

// query protein stability index value for entry GTHNMYKEIRDVSRVAA [RPL20A]
2.03

# get_value(readout='protein stability index', item= GKRQVLLRPSSKVIIKF [RPS22B] )
3.25

====

Listed here are sequences together with their documented protein stability index.
Test: protein stability index of a GFP-peptide fusion (yeast GPS) (PSI 1-4); higher = more stable; sorted into four equal gates, so the index is relative within each strain
Conditions: doa10∆

Known protein stability index results, listed for orientation:
Requested field: protein stability index. Item: LKNTMQYLTNFSRFRDQ [RPB4]
3.09

protein stability index for RSNDPQSSLSKVDIPLE [NUT2] ?
3.02

What value of protein stability index has been recorded for this entry: EGARMVRELFEMARTKK [RPT1]
1.78

Fill blank: measured protein stability index of the sequence EHASLLVRDSKPSKPFN [MED8] is ____.
2.43

// protein stability index lookup, key: RHGSVVEASRRRRSSTN [MED1]
3.19

Others:
Param item = LKISGEEESLHVFQYAN [RPC37] ; retrieve measured protein stability index.
1.85

====

Parameter: protein stability index. Scope: all listed entries.
Assay: protein stability index of a GFP-peptide fusion (yeast GPS) (PSI 1-4); higher = more stable; sorted into four equal gates, so the index is relative within each strain
Details: doa10∆
Would you mind answering with just the numeric figure?

Query: protein stability index; subject: ARIIRSELLARDIFQED [RGR1]
2.26

# input sequence: LVGEYWEQLKITVVPVV [QCR6] ; wanted: its protein stability index
1.38

Value lookup for protein stability index; key = ETANVASLNLLQLAPGA [RPL4A]
2.84

Given the sequence STMGTPTVHNSTAAAPI [PGD1] , what is its reported protein stability index?
2.83

Request the reported protein stability index associated with EIARQMRDKSFGRTLAS [RPL12A]
3.25

// next entry
State the recorded protein stability index for this entry: SKTVKVLKTLIEKFEQV [RPN6]
2.27

====

Experiment: protein stability index of a GFP-peptide fusion (yeast GPS) (PSI 1-4); higher = more stable; sorted into four equal gates, so the index is relative within each strain
Details: san1∆
Parameter: protein stability index
Could you keep your reply to the number by itself?

Guide cases for protein stability index, answers given:
Which protein stability index value belongs to PETGDHVVGRIAEVGNK [RRP4] ?
3.05

Sample NRLSNPQKNLLLKGPAS [YOR098C/NUP1] — what was its protein stability index?
2.68

What measured protein stability index goes with SNNTGNTAFGNSNPTSN [YJL041W/NSP1] ?
2.66

protein stability index for KEKAPTIIFIDELDAIG [RPT5] ?
1.85

Which protein stability index is reported for this sequence? LYAERVQDRGLSAVAQA [RPS3]
3.3

---
So what does the record say about protein stability index for NDSETHTEDESTKELKF [BRN1] ?
3.17

GET /values?readout=protein stability index&item= ADAVTKDLKLRREDEII [REC8]
3.3

I have this sequence here, SVIPLKGRYAPETGDHV [RRP4] , and I need its recorded protein stability index.
2.67

Name the recorded protein stability index for GLVKQHLDSFNYFVDTD [RET1] .
2.97

====

Catalogue of protein stability index readings, one per entry.
Experiment: protein stability index of a GFP-peptide fusion (yeast GPS) (PSI 1-4); higher = more stable; sorted into four equal gates, so the index is relative within each strain
Settings: ubr1∆
Lab note: jot the number down without any unit.

Known protein stability index results, listed for orientation:
Name the reported protein stability index value associated with the sequence KSHKQTIVTGGGSGNGD [RPP1]
3.44

// protein stability index lookup, key: ITMPATNGKPDMAILER [ARP7]
3.18

I would be grateful if you could share the reported protein stability index for DKNKLLLLAAQIVSYCS [SSN2] .
1.74

Fill in the blank: the reported protein stability index of NVLLLDSNGDFNEDQLF [RRP46] is ____.
3.17

For the sequence TQMDGFDQSTNVKVIMA [RPT3] , what protein stability index is on record?
2.31

Looking for the measured protein stability index of DTRITHLLRQTNAFLDS [SNF2] , can you help?
1.61

Now look at this one.
What measured protein stability index goes with TFRRRNPYNTRSNKIKV [RPL34A] ?
1.9
